Data origin: ChEMBL document CHEMBL1201862

# Test system: U-251
# assay-method-text: NCI tumour cell line growth inhibition, 48 h
Calls of active or inactive are those of the source. Rule as the data show it: active = GI50 up to about 1.1 µM and inactive = higher.
outcome-measure: GI50

[
  {
    "molecule": "O=[N+]([O-])/C(Cl)=C(/C(Cl)=C(Cl)Cl)N1CCOCC1",
    "reported-measurement": "10.7 µM (inactive)"
  },
  {
    "molecule": "NCC(O)CSCc1ccc(Cl)cc1 (configuration not stated)",
    "reported-measurement": "> 100 µM (inactive)"
  },
  {
    "molecule": "COc1ccc(/C=N/NC(=O)c2cnc3[nH]c(=O)n(C)c(=O)c3c2)cc1",
    "reported-measurement": "36.7 µM (inactive)"
  },
  {
    "molecule": "CC1=C2NCN(C)N=C2C(C#N)(C#N)C1(C#N)C#N",
    "reported-measurement": "28.9 µM (inactive)"
  },
  {
    "molecule": "Nc1nc(Cl)cc(NCCCCCCNc2cc(Cl)nc(N)n2)n1",
    "reported-measurement": "> 100 µM (inactive)"
  },
  {
    "molecule": "Cc1cc2c(c3c1c1ccccc1n3C)C(=O)c1ccccc1C2=O",
    "reported-measurement": "> 100 µM (inactive)"
  },
  {
    "molecule": "COc1ccc2c3c1C(=O)CCCC3CO2 (configuration not stated)",
    "reported-measurement": "> 100 µM (inactive)"
  }
]
